Cited source: the supplement of paper PMC9112550

System: Escherichia coli TOP10
Method description: shrunken log2 fold change of peptide-encoding DNA abundance (4.5 h post-induction vs induction); higher = less antimicrobial activity (less host growth inhibition)
Details: time post-induction: 4.5 h; library: site-saturation at positions 5, 18, 19, 20

{"columns": ["Sequence entry", "shrunken log2 fold change"],
 "data": [
  ["RRIRQRPPRLPRPRPRPMNRPRP", -0.275],
  ["RRIRVRPPRLPRPRPRPTLVPRP", 0.0318],
  ["RRIRLRPPRLPRPRPRPFCNPRP", -0.245],
  ["RRIRIRPPRLPRPRPRPLVKPRP", -0.0899],
  ["RRIRKRPPRLPRPRPRPAGGPRP", 0.435],
  ["RRIRVRPPRLPRPRPRPNAHPRP", 0.038],
  ["RRIRQRPPRLPRPRPRPKDIPRP", 0.0266],
  ["RRIRTRPPRLPRPRPRPQWKPRP", 0.0581],
  ["RRIRKRPPRLPRPRPRPLHKPRP", 0.342],
  ["RRIRYRPPRLPRPRPRPHKFPRP", -0.609],
  ["RRIRHRPPRLPRPRPRPPKRPRP", -0.142],
  ["RRIRTRPPRLPRPRPRPAAIPRP", 0.163],
  ["RRIRSRPPRLPRPRPRPPWMPRP", 0.167],
  ["RRIRMRPPRLPRPRPRPTFSPRP", 0.386],
  ["RRIRIRPPRLPRPRPRPVYEPRP", -0.12]
]}

###

Tested on: Escherichia coli TOP10
Method description: shrunken log2 fold change of peptide-encoding DNA abundance (4.5 h post-induction vs induction); higher = less antimicrobial activity (less host growth inhibition)
Details: time post-induction: 4.5 h; library: site-saturation at positions 5, 18, 19, 20
Catalogue of shrunken log2 fold change values
Property name: shrunken log2 fold change

{"columns": ["Sequence entry", "Test value"],
 "data": [
  ["RRIRCRPPRLPRPRPRPRHSPRP", -0.102],
  ["RRIRQRPPRLPRPRPRPPKLPRP", 0.202],
  ["RRIRHRPPRLPRPRPRPCFRPRP", -0.346],
  ["RRIRERPPRLPRPRPRPRLWPRP", 0.0271]
]}

###

System: Escherichia coli TOP10
Method description: shrunken log2 fold change of peptide-encoding DNA abundance (4.5 h post-induction vs induction); higher = less antimicrobial activity (less host growth inhibition)
Details: time post-induction: 4.5 h; library: site-saturation at positions 5, 18, 19, 20
Property name: shrunken log2 fold change

{"columns": ["Sequence entry", "Test value"],
 "data": [
  ["RRIRWRPPRLPRPRPRPMGHPRP", -0.116],
  ["RRIRCRPPRLPRPRPRPIWEPRP", 0.0488],
  ["RRIRVRPPRLPRPRPRPHECPRP", -0.0944],
  ["RRIRARPPRLPRPRPRPELMPRP", 1.19],
  ["RRIRPRPPRLPRPRPRPDVFPRP", -0.203]
]}

###

System: Escherichia coli TOP10;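 note: peptides expressed intracellularly from a pBAD plasmid library in pooled LB shake-flask culture, induced with 0.3% L-arabinose, DNA abundance read by NGS, three biological replicates, DESeq2 with apeglm shrinkage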
Method description: shrunken log2 fold change of peptide-encoding DNA abundance (4.5 h post-induction vs induction); higher = less antimicrobial activity (less host growth inhibition)
Details: time post-induction: 4.5 h; library: site-saturation at positions 5, 18, 19, 20

{"columns": ["Sequence entry", "shrunken log2 fold change"],
 "data": [
  ["RRIRGRPPRLPRPRPRPKLCPRP", 0.75],
  ["RRIRYRPPRLPRPRPRPRQYPRP", 0.0153],
  ["RRIRYRPPRLPRPRPRPYAKPRP", -1.76]
]}
